Values from patent US10155756B2

Provide the recorded Tmax for the entries that follow.
Assay: in vivo
Design: species or system SD rats
Details: SD, rat, po, 10 mg/kg
Experimental: Example 55: Pharmacokinetic Studies of Compounds TJ170298 and TJ170385 1. Administration and Sample Collection a. Rat intravenous administration: SD rats 3, weight 180˜220 g. Fasting 12 h before administration, a small amount of food was allowed during the experiment, and water was free. The compounds TJ170298 and TJ170385 were administered intravenously at a dose of 2 mg/kg. […] The pharmacokinetic parameters of rats after administration were calculated by DAS 2.0 software.
Structures can show the parent of a compound that is named as a salt.
Answers are plain numbers, in h.

INSERT INTO results (molecule, measure, unit_string, number) VALUES
  ('CCc1nn2ccc(Cl)cc2c1C(=O)NCc1ccc(N2CCC(c3ccc(OC(F)(F)F)cc3)CC2)cc1 [TJ170298 (hydrochloride)]', 'Tmax', 'h', 2);

[in] So what's the measured Tmax for this one? `Cc1ccn2nc(C)c(C(=O)NCc3ccc(N4CCC(c5ccc(OC(F)(F)F)cc5)CC4)cc3)c2c1`
[out] 2

====

assay: in vivo; parameters: species or system SD rats; conditions: SD, rat, iv, 2 mg/kg
Counter-ions that a name gives are not always drawn.
Measure: AUC(0-inf)

INSERT INTO assay_data (molecule, measure, result) VALUES
  ('CCc1nn2ccc(Cl)cc2c1C(=O)NCc1ccc(N2CCC(c3ccc(OC(F)(F)F)cc3)CC2)cc1 [TJ170298 (hydrochloride)]', 'AUC(0-inf)', '3900 ng·h/mL');

--- query ---
[in] So what's the measured AUC(0-inf) for this one? `Cc1ccn2nc(C)c(C(=O)NCc3ccc(N4CCC(c5ccc(OC(F)(F)F)cc5)CC4)cc3)c2c1`
[out] 2030 ng·h/mL

====

system: self-luminescent tuberculosis; test: microbe, parasite or virus in culture; type: cell-based; settings: Mycobacterium tuberculosis, 72 h; read-out: MIClux
Provide the recorded MIC for the entries that follow.

# example entries with known answers
INSERT INTO results (record_smiles, result) VALUES
  ('CCc1nn2ccc(OC)cc2c1C(=O)NCc1ccc(N2CCC(c3ccc(OC(F)(F)F)cc3)CC2)cc1', '< 1 µg/mL'),
  ('Cc1ccn2nc(C)c(C(=O)NCc3ccc(Oc4ccc(F)cc4)cc3)c2c1', '< 1 µg/mL'),
  ('Cc1nn2ccc(-c3ccccc3)cc2c1C(=O)NCc1ccc(N2CCC(c3ccc(OC(F)(F)F)cc3)CC2)cc1', '> 10 µg/mL'),
  ('Cc1nn2ccc(C(F)(F)F)cc2c1C(=O)NCc1ccc(N2CCC(c3ccc(OC(F)(F)F)cc3)CC2)cc1', '1 to 10 µg/mL'),
  ('Cc1ccn2nc(C)c(C(=O)NCc3ccc(N4CCCCC4)cc3)c2c1', '< 1 µg/mL'),
  ('Cc1ccn2nc(C)c(C(=O)NCc3ccc(N(C)C)cc3)c2c1', '< 1 µg/mL');

Here are 2 molecules. What values of MIC were reported for them?
1. Cc1ccn2nc(C)c(C(=O)NCc3ccc(-c4ccc(OC(F)(F)F)cc4)cc3)c2c1
2. CCc1ccn2nc(C)c(C(=O)NCc3ccc(N4CCC(c5ccc(OC(F)(F)F)cc5)CC4)cc3)c2c1

[out]
1: < 1 µg/mL; 2: < 1 µg/mL
